# tested-on: T1, canine OX40L, full length membrane form, expressed on HEK293 cells (canine)
# T1 chain: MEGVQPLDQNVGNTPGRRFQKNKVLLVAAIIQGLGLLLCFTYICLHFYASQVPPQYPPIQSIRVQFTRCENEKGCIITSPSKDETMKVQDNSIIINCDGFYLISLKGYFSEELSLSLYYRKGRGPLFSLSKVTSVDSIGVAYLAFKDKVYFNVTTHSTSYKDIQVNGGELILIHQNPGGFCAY
# method-description: cell-based or functional assay
outcome-measure: % Signal Inhibition Rep2 (%)
# output: bare number, implied unit %

Given the entry PMX109 (antibody, V domains shown) VH: EVQLVESGGDLVRPGGSLRLSCVASGFTFTNYHMSWVRQAPGKGLQWVAFINSGGSSTTYTDVVRGRFTISRDYAKNTLYLQMNSLTAEDTAVYYCASGSIWTHFDHWGQGTLVTVSS VL: SFVLTQLPSVSVTLRQTARITCGGDSVGSKSVYWYQQKLGQAPVLIIYRDSNRPTGIPERFSGASSGNTATLTISGALAEDEADYYCQVWDNSNKAIFGGGTHLTVL , report its measured % Signal Inhibition Rep2.
69.5

Given the entry PMX059 (antibody, V domains shown, also called PMX59) VH: EVHLVESGGDLVKPEGSLRLSCVVSGFTFSNYVMNWVRQAPGKGLQWVAFISGDGRSTTYTDAVKSRFTISRDNAKNTLYLQMSSLRTEDTAIYFCAKEKYSSGWSFEYWGQGTLVTVSS VL: SYVLTQLPSKNVTLKQPAHITCGGDNIGSKSVHWYQQKLGQAPVLIIYYDSSRPTGIPERFSGANSGNTATLTISGALAEDEADYYCQVWDSSASVFGGGTHLTVL , report its measured % Signal Inhibition Rep2.
64.3
